assay-overview: protein stability index of a GFP-peptide fusion (GPS, HEK-293T) (PSI 1-6); higher = more stable;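 further: 24-mer peptide tiles fused after GFP, lentivirally expressed, FACS-sorted into six equal bins by GFP/DsRed ratio, decoded by Illumina sequencing, PSI is the read-weighted mean bin number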
test-settings: treatment: MLN4924 1 uM, 8 h; c terminus: a fixed tail appended
measurement-type: protein stability index

Record excerpt, results attached:
SKLASMSNDFKSVLEVRTENLKQQ [STX5]
4.21
ASLGLTQTQVKIWFQNKRSKFKKL [DLX1]
2.61

query: Requested field: protein stability index. Item: ASDLSSEEGWRLFKIDKEYLLKMA [SAT1]
result: 2.6

query: // next record VERYHNLCQKQVKAQLPRRESERR [FBXO28]
result: 3.99

query: // next record YSSGSYDSIKTEVSGCPEDLTVGR [NOL4L]
result: 4.44

query: // next record AGIREAKAKQEKVSAQYLSEIEMA [FLOT1]
result: 4.75

query: // next record PENLLLASKCKGAAVKLADFGLAI [CAMK2B]
result: 2.56

query: // next record LSLPARNQAGYFMLPTVITDIKDE [ALDH8A1]
result: 3.88

query: // next record GDRLQFNQLSQAELDELASKAPVL [EFHC1]
result: 4.72

query: // next record YEKAYEGGSELGGWSLGRWTHDGI [CPXM2]
result: 2.69

query: // next record QREEHELVHVMERSLSPSLSSVDM [RAD54B]
result: 4.76

---

assay-overview: protein stability index of a GFP-peptide fusion (GPS, HEK-293T) (PSI 1-6); higher = more stable
test-settings: treatment: DMSO; c terminus: a fixed tail appended
The reader will find reported protein stability index values listed item by item below.
Response field accepts a number only; no unit should be typed.

HGWLRPEMRTKEQILELLVLEQFL [ZNF263]
2.46
PGGNVKGVWAPPAPGFGEDVPNRL [BEX5]
3.95
KQDVLGPSTTPPAHSSSNTIRSGI [SASS6]
4.66
GDLSGGQVLKKIAQKALDLPSSGE [HMOX1]
4.77

query: Requested field: protein stability index. Item: PENLLLASKCKGAAVKLADFGLAI [CAMK2B]
result: 2.33

query: // next record RMGATMAAINSIYSNTDANILFYV [GLT8D2]
result: 2.63

query: // next record QACSLPASCCIDPREDGASVNDQC [TSPAN10]
result: 5.06

query: // next record EETRVWHRRDGKWQNVHFHCSGAP [CAMK2B]
result: 3.1

query: // next record WRERAVEKRERALEEVERAILEMK [ZBED2]
result: 4.2

query: // next record SREKTACAINKVGVSFSTVENELM [FAM98B]
result: 3.35

query: // next record FVELQGFLAAEQDIREEIRKVVQS [TSN]
result: 2.21

query: // next record YSLGGVRSLNVASGSGKSGGYGFG [KRT71]
result: 2.72

query: // next record SASAKRVWNMTATRPKKMGSQLPK [FATE1]
result: 3.76

query: // next record EISKDNSCKENCTCSSCLLRAPTI [EDARADD]
result: 4.67

query: // next record SHHSKHKAPSKLGLIISGPILQEG [DLC1]
result: 3.08

---

assay-overview: protein stability index of a GFP-peptide fusion (GPS, HEK-293T) (PSI 1-6); higher = more stable
test-settings: treatment: MLN4924 1 uM, 8 h; c terminus: a fixed tail appended
measurement-type: protein stability index
Response field accepts a number only; no unit should be typed.

Record excerpt, results attached:
LQILAYGNQESKLIILASGGPQAL [CTNNB1]
2.22
IFFDDLDSPSKEEVFRFVQSCARA [CPOX]
2.69
LDVFGRGDNISDVSKFLEDDKWME [LUC7L3]
4.37
VGKTRLICARACNTTLTQYQLLAT [RHOBTB1]
2.21
RLEDKVKTLKAENAGLSSTAGLLR [JUNB]
3.97
QTLQALNFCHIHNCIHRDIKPENI [CDKL4]
2.34

// switching to the query sequence
query: Requested field: protein stability index. Item: SQKATRECEKSALTPGFSDNAIML [FAN1]
result: 3.98

---

assay-overview: protein stability index of a GFP-peptide fusion (GPS, HEK-293T) (PSI 1-6); higher = more stable
test-settings: treatment: MLN4924 1 uM, 8 h; c terminus: a fixed tail appended
measurement-type: protein stability index
Response field accepts a number only; no unit should be typed.

Record excerpt, results attached:
YHNAGTQTVPKRIPERLSIFCRDT [IQUB]
3.04
VCAICQINLEGKTFYSKKDRPLCK [PDLIM7]
2.42
ESRIVEQENAIQTMELRNYFSLYC [SNX8]
2.61

query: Requested field: protein stability index. Item: VAGSLAGAIAQSSIYPMEVLKTRM [SLC25A25]
result: 2.54

query: // next record PLKAQNDLDISRIKRGNTTLESTD [P2RY14]
result: 5.24

---

The reader will find reported protein stability index values listed item by item below.
assay-overview: protein stability index of a GFP-peptide fusion (GPS, HEK-293T) (PSI 1-6); higher = more stable
test-settings: treatment: MLN4924 1 uM, 8 h; c terminus: a fixed tail appended

Record excerpt, results attached:
YHSPELTTPPGHGTLDNSKSMKPY [NEUROD6]
3.7
SENMWNTGSTYNLSSGMAVAGMPT [CARM1]
3.63
VPGEFKQDVTVVGSAGRLLAVGTD [GFOD1]
3.69
PASGSTFRGRRDVSGSWERDQQVE [RETREG3]
4.86
AEKETELSLQKEQLQLKIIEIEDE [TRIM29]
5.45
EPGGYDSSSTLMSSELETTSFFDS [DVL3]
4.96
EDITKGTQSLPTASASKFPSSGPV [AUP1]
5.08

// switching to the query sequence
query: Requested field: protein stability index. Item: ASSLPAEVHSLTLSPPEQAAQPMQ [PLAGL1]
result: 4.89

---

assay-overview: protein stability index of a GFP-peptide fusion (GPS, HEK-293T) (PSI 1-6); higher = more stable
test-settings: treatment: MLN4924 1 uM, 8 h; c terminus: a fixed tail appended
The reader will find reported protein stability index values listed item by item below.
Response field accepts a number only; no unit should be typed.

Record excerpt, results attached:
QFNVSGPGLLEEDNQWMTQINRLQ [NECAB1]
3.31
DVCSFPNALVTKLLLDCGAEVNAV [FEM1B]
2.44
AEHQFSFMEKRNQWLVSQLSAASP [TRAF3IP2]
3.23

query: Requested field: protein stability index. Item: VTPFDHNIVNLLTTCSTPLLNSPP [AUP1]
result: 2.48

query: // next record AARALDKNKIPYKGFIPEDLEAFI [FEM1A]
result: 3.42

query: // next record PAPSPHEEPCSPGLLQDQGSGLSS [CBY2]
result: 5.19

---

assay-overview: protein stability index of a GFP-peptide fusion (GPS, HEK-293T) (PSI 1-6); higher = more stable
test-settings: treatment: DMSO; c terminus: a fixed tail appended
measurement-type: protein stability index
Response field accepts a number only; no unit should be typed.

QIPTQNTQARQVMEREFNNLLALG [PPFIA4]
3.56

query: Requested field: protein stability index. Item: HFDATNLHKQTASDLLDEKEIAKN [FEM1C]
result: 5.38

query: // next record LQCRSPPRLHGAKAILDAEPGPRP [TBC1D10A]
result: 4.46

---

assay-overview: protein stability index of a GFP-peptide fusion (GPS, HEK-293T) (PSI 1-6); higher = more stable
test-settings: treatment: DMSO; c terminus: a fixed tail appended
The reader will find reported protein stability index values listed item by item below.
Response field accepts a number only; no unit should be typed.

Record excerpt, results attached:
EEMAKSSRASAARVGQLQEALNER [LRRC45]
4.97
PTQGPETPRSPEGTTEAATQDGKE [PXN]
5.62
FPKINHGILYDEEKYKPFSQVPTG [CFHR2]
2.4

// switching to the query sequence
query: Requested field: protein stability index. Item: YDPTYKDKEGPSPKVEYVWRNIIL [SCD]
result: 2.11

---

assay-overview: protein stability index of a GFP-peptide fusion (GPS, HEK-293T) (PSI 1-6); higher = more stable
test-settings: treatment: DMSO; c terminus: a fixed tail appended
measurement-type: protein stability index
Response field accepts a number only; no unit should be typed.

KLDFKEKAQAKVGSLDNAHHVPGG [MAP2]
4.73

query: Requested field: protein stability index. Item: YIWEKSIGNLVKILHGTRGELLLD [RBBP5]
result: 2.65

query: // next record SPSFPEAPDSGRSAPYSAAFLELP [TBX6]
result: 3.96

query: // next record RLVFLAAFVVYLETETLVTREAVT [TSN]
result: 3.6

query: // next record IKQKLGMNLMNELKQNFSKSWHDM [TPD52L1]
result: 2.09

query: // next record EALRALQEGLWLDRGTRVVFIDFS [PKD2L1]
result: 2.3

query: // next record EEERAQDRIATTDDTTAMASASSS [MAGEA10]
result: 5.66

query: // next record NFPQCVLEISDQEVLEWYTAKDFI [EFHC1]
result: 2.51
